# MEASURED_ON: binding between ALS-related mutant SOD1 (Flag-SOD1 G93A) and Derlin-1 (Derlin-1-HA) (Homo sapiens, UniProt P00441+Q9BUN8, G94A)
# Construct: expressed in transfected cells; host or cells: HEK293A
# Sequence (P00441 whole entry G94A, species assumed): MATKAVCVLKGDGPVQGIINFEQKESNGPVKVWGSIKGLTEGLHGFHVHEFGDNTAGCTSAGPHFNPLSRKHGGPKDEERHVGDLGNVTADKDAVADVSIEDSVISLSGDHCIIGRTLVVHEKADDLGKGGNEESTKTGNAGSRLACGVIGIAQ
# Sequence (Q9BUN8 whole entry, species assumed, stated change not applied): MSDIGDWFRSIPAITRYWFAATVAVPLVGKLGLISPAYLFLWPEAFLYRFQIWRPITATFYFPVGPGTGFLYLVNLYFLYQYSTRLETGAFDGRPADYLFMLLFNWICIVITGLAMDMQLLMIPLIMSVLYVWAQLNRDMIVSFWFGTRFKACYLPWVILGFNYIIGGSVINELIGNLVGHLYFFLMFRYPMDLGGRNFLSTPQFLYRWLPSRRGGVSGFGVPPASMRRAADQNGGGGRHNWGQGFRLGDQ
# TEST_DESCRIPTION: Cell-based co-immunoprecipitation assay of mutant SOD1 (G93A)-Derlin-1 binding
# Set-up: key: a compound exhibiting no inhibitory activity is set at 0; a compound exhibiting inhibitory activity is set at 1; a compound exhibiting significant inhibitory activity is set at 2; a compound having higher inhibitory activity than the compound of Example 1 is set at 3
# PROTOCOL_CONDITIONS: assay concentration 20 μM; HEK293A cells overexpressing Flag-SOD1 G93A and Derlin-1-HA
# Method: As cells, human embryonic kidney-derived, Human Embryonic Kidney 293A (HEK293A) cells were used. The cells were cultured in High Glucose Dulbecco's modified Eagle's medium (DMEM: 4.5 mg/ml glucose, Sigma) supplemented with complement-inactivated 10% fetal bovine serum (FBS, Vitromex) and 100 units/mL Penicillin G (Meiji), which was placed in an incubator set at conditions of 37° C. and 5% CO2. […]
ENDPOINT_NAME: Activity value (score)

- COc1cccc(N(CC=C(C)C)C(=O)c2sc3nc(-c4ccncc4)ccc3c2N)c1: 1
- C=C(C)CN(C(=O)c1sc2nc(-c3ccncc3)ccc2c1N)c1ccccc1: 2
- Nc1c(C(=O)Nc2cccc(C(F)(F)F)c2)sc2nc(-c3ccncc3)ccc12: 1
- C=CCN(C(=O)c1sc2nc(-c3cccnc3)ccc2c1N)c1cccc(F)c1F: 2
- C=CCN(C(=O)c1sc2nc(-c3cccnc3)ccc2c1N)c1ccccc1: 2

A. Nc1c(C(=O)Nc2cccc3ccccc23)sc2nc(-c3cccnc3)ccc12
B. CCCN(C(=O)c1sc2nc(-c3cccnc3)ccc2c1N)c1ccccc1
Form field 'greater Activity value (score)' accepts A or B ; which applies? Write down the label attached to your selection.
B

====

# MEASURED_ON: binding between ALS-related mutant SOD1 (Flag-SOD1 G93A) and Derlin-1 (Derlin-1-HA) (Homo sapiens, UniProt P00441+Q9BUN8, G94A)
# Construct: expressed in transfected cells; host or cells: HEK293A
# TEST_DESCRIPTION: Cell-based co-immunoprecipitation assay of mutant SOD1 (G93A)-Derlin-1 binding
# Set-up: key: a compound exhibiting no inhibitory activity is set at 0; a compound exhibiting inhibitory activity is set at 1; a compound exhibiting significant inhibitory activity is set at 2; a compound having higher inhibitory activity than the compound of Example 1 is set at 3
# PROTOCOL_CONDITIONS: assay concentration 20 μM; HEK293A cells overexpressing Flag-SOD1 G93A and Derlin-1-HA
ENDPOINT_NAME: Activity value (score)

Record excerpt, results attached:
* C=CCN(C(=O)c1sc2nc(-c3cccnc3)ccc2c1N)c1cc(F)ccc1F [Example 17] | 2
* Nc1c(C(=O)Nc2ccc(OCc3ccccc3)cc2)sc2nc(-c3cccnc3)ccc12 [Example 26] | 1

A. CC(C)=CCN(C(=O)c1ccc2nc(-c3cccnc3)ccc2c1N)c1ccccc1 [Example 42]
B. COc1ccc(N(CC=C(C)C)C(=O)c2sc3nc(-c4ccncc4)ccc3c2N)cc1 [Example 46]
Hey, which is lower on measured Activity value (score), A or B ? // caller expects the label of the chosen entry
A

====

# MEASURED_ON: binding between ALS-related mutant SOD1 (Flag-SOD1 G93A) and Derlin-1 (Derlin-1-HA) (Homo sapiens, UniProt P00441+Q9BUN8, G94A)
# Construct: expressed in transfected cells; host or cells: HEK293A
# TEST_DESCRIPTION: Cell-based co-immunoprecipitation assay of mutant SOD1 (G93A)-Derlin-1 binding
# Set-up: key: a compound exhibiting no inhibitory activity is set at 0; a compound exhibiting inhibitory activity is set at 1; a compound exhibiting significant inhibitory activity is set at 2; a compound having higher inhibitory activity than the compound of Example 1 is set at 3
# PROTOCOL_CONDITIONS: assay concentration 20 μM; HEK293A cells overexpressing Flag-SOD1 G93A and Derlin-1-HA
ENDPOINT_NAME: Activity value (score)

• Nc1c(C(=O)Nc2ccc(I)cc2)sc2nc(-c3cccnc3)ccc12 [Example 27] = 1
• C#CCCCOCC=CCN(C(=O)c1sc2nc(-c3cccnc3)ccc2c1N)c1ccccc1 (stereo in doubt) [Example 38] = 2
• CC(C)=CCN(C(=O)c1sc2nc(-c3cccnc3)ccc2c1N)c1ccncc1 [Example 39] = 1
